System: human lung cancer cell NCI-H460
measurement-protocol: Tumor cell viability by MTT assay
Format: cell-based
condition-set: Homo sapiens, NCI-H460, 96 h
result-type: IC50
Please provide the amount together with its unit, number first.

Sample records with IC50:
Q: // IC50 lookup, key: COc1ncc(-c2cc(OC3CCOCC3)c3nc(N)nc(C)c3c2)cc1NS(=O)(=O)C1CC1
A: 930 nM

Q: // IC50 lookup, key: CNc1nc(C)c2cc(-c3cnc(OC)c(NS(=O)(=O)c4ccc(F)cc4F)c3)cc(OC3CCOCC3)c2n1
A: 59 nM

Q: // IC50 lookup, key: COc1ncc(-c2cc(OC3CCOCC3)c3nc(NC(C)=O)nc(C)c3c2)cc1NS(C)(=O)=O
A: 4000 nM

Q: // IC50 lookup, key: COc1ncc(-c2cc(OC3CCOCC3)c3nc(NC(C)=O)nc(C)c3c2)cc1NS(=O)(=O)c1ccc(F)cc1F
A: 530 nM

More entries:
Q: // IC50 lookup, key: COc1ncc(-c2cc(OCCN3CCCC3)c3ncnc(C)c3c2)cc1NS(=O)(=O)c1ccc(F)cc1F
A: 2100 nM

Q: // IC50 lookup, key: COc1ncc(-c2cc(O[C@@H]3CCOC3)c3ncnc(C)c3c2)cc1NS(C)(=O)=O
A: 790 nM

Q: // IC50 lookup, key: COc1ncc(-c2cc(OC(C)C)c3ncnc(C)c3c2)cc1NS(=O)(=O)c1ccc(F)cc1F
A: 50 nM

---

Tested on: human lung cancer cell NCI-H460
measurement-protocol: Tumor cell viability by MTT assay
Assay type: cell-based
condition-set: Homo sapiens, NCI-H460, 96 h
result-type: log10 of IC50 (log10 of the value in nM)
Friendly reminder: values = log10 of IC50, unit nM.

Q: // log10 of IC50 lookup, key: COc1ncc(-c2cc(OC3CCOC(C)(C)C3)c3ncnc(C)c3c2)cc1NS(=O)(=O)c1ccc(F)cc1F (stereo not drawn)
A: 1.75

Q: // log10 of IC50 lookup, key: COc1ncc(-c2cc(O[C@H]3CC[C@H](OC)CC3)c3nc(N)nc(C)c3c2)cc1NS(=O)(=O)c1ccc(F)cc1F (single isomer, unassigned)
A: 1.48

Q: // log10 of IC50 lookup, key: COc1ncc(-c2cc(OC3CCOCC3)c3nc(N)nc(C)c3c2)cc1NS(=O)(=O)c1ccc(F)cc1
A: 1.98

Q: // log10 of IC50 lookup, key: COc1ncc(-c2cc(OCC3CCCO3)c3ncnc(C)c3c2)cc1NS(=O)(=O)c1ccc(F)cc1F (stereo not drawn)
A: 2.38

Q: // log10 of IC50 lookup, key: COc1ncc(-c2cc(OC3CCOCC3)c3nc(NCC4CC4)nc(C)c3c2)cc1NS(=O)(=O)c1ccc(F)cc1F
A: 2.61

Q: // log10 of IC50 lookup, key: CNc1nc(C)c2cc(-c3cnc(OC)c(NS(=O)(=O)c4ccc(F)cc4F)c3)cc(OCC3CCOC3)c2n1 (stereo not drawn)
A: 2.49

Q: // log10 of IC50 lookup, key: COc1ncc(-c2cc(OC(C)C)c3nc(N)nc(C)c3c2)cc1NS(=O)(=O)c1ccc(F)cc1F
A: 2.15

Q: // log10 of IC50 lookup, key: COc1ncc(-c2cc(OC3CCOCC3)c3ncnc(C)c3c2)cc1NS(=O)(=O)C1CC1
A: 2.45

More entries:
Q: // log10 of IC50 lookup, key: COc1ncc(-c2cc(OC3CCCCC3)c3ncnc(C)c3c2)cc1NS(=O)(=O)c1ccc(F)cc1F
A: 1.99

Q: // log10 of IC50 lookup, key: CNc1nc(C)c2cc(-c3cnc(OC)c(NS(=O)(=O)c4ccc(F)cc4F)c3)cc(OC3CCOC(C)(C)C3)c2n1 (stereo not drawn)
A: 2.40

Q: // log10 of IC50 lookup, key: Cc1ncc(-c2cc(OC3CCOCC3)c3ncnc(C)c3c2)cc1NS(=O)(=O)c1ccc(F)cc1F
A: 2.94

Q: // log10 of IC50 lookup, key: CNc1nc(C)c2cc(-c3cnc(OC)c(NS(=O)(=O)c4ccc(Cl)s4)c3)cc(O[C@@H]3CCOC3)c2n1
A: 2.04

Q: // log10 of IC50 lookup, key: COc1ncc(-c2cc(OCC3CCOCC3)c3ncnc(C)c3c2)cc1NS(=O)(=O)c1ccc(F)cc1F
A: 1.58

Q: // log10 of IC50 lookup, key: COc1ncc(-c2cc(O[C@H]3CCOC3)c3nc(N)nc(C)c3c2)cc1NS(C)(=O)=O
A: 3.36

Q: // log10 of IC50 lookup, key: COc1ncc(-c2cc(O[C@@H]3CCOC3)c3ncnc(C)c3c2)cc1NS(=O)(=O)c1ccc(F)cc1F
A: 1.53

Q: // log10 of IC50 lookup, key: COc1ncc(-c2cc(O[C@H]3CCOC3)c3ncnc(C)c3c2)cc1NS(C)(=O)=O
A: 2.83

Q: // log10 of IC50 lookup, key: COc1ncc(-c2cc(OC(F)F)c3ncnc(C)c3c2)cc1NS(=O)(=O)c1ccc(F)cc1F
A: 3.00

Q: // log10 of IC50 lookup, key: COc1ncc(-c2cc(OCCn3cccn3)c3ncnc(C)c3c2)cc1NS(=O)(=O)c1ccc(F)cc1F
A: 2.59

---

system-tested: PI3Kα (Homo sapiens (Human))
Consider the cut-off 1 nM. If the recorded IC50 is strictly smaller, the label is MET; if not, the label is NOT MET.

Q: API: query returns whether the molecule falls strictly under 1 nM in IC50. Query: COc1ncc(-c2cc(OC)c3ncnc(C)c3c2)cc1NS(=O)(=O)c1ccc(F)cc1F [Example 72]
A: MET

Q: API: query returns whether the molecule falls strictly under 1 nM in IC50. Query: CNc1nc(C)c2cc(-c3cnc(OC)c(NS(=O)(=O)c4ccc(F)cc4F)c3)cc(OCC3CCOC3)c2n1 (stereo not shown) [Example 38]
A: NOT MET

Q: API: query returns whether the molecule falls strictly under 1 nM in IC50. Query: COc1ncc(-c2cc(OC3CCN(C)CC3)c3ncnc(C)c3c2)cc1NS(=O)(=O)c1ccc(F)cc1F [Example 62]
A: NOT MET

Q: API: query returns whether the molecule falls strictly under 1 nM in IC50. Query: COc1ncc(-c2cc(OC3CCCCC3)c3nc(N)nc(C)c3c2)cc1NS(=O)(=O)c1ccc(F)cc1F [Example 22]
A: MET

Q: API: query returns whether the molecule falls strictly under 1 nM in IC50. Query: COc1ncc(-c2cc(OC3CCOCC3)c3ncnc(C)c3c2)cc1NS(C)(=O)=O [Example 47]
A: NOT MET

---

system-tested: PI3Kα (Homo sapiens (Human), UniProt P42336)
Sequence (P42336 whole entry): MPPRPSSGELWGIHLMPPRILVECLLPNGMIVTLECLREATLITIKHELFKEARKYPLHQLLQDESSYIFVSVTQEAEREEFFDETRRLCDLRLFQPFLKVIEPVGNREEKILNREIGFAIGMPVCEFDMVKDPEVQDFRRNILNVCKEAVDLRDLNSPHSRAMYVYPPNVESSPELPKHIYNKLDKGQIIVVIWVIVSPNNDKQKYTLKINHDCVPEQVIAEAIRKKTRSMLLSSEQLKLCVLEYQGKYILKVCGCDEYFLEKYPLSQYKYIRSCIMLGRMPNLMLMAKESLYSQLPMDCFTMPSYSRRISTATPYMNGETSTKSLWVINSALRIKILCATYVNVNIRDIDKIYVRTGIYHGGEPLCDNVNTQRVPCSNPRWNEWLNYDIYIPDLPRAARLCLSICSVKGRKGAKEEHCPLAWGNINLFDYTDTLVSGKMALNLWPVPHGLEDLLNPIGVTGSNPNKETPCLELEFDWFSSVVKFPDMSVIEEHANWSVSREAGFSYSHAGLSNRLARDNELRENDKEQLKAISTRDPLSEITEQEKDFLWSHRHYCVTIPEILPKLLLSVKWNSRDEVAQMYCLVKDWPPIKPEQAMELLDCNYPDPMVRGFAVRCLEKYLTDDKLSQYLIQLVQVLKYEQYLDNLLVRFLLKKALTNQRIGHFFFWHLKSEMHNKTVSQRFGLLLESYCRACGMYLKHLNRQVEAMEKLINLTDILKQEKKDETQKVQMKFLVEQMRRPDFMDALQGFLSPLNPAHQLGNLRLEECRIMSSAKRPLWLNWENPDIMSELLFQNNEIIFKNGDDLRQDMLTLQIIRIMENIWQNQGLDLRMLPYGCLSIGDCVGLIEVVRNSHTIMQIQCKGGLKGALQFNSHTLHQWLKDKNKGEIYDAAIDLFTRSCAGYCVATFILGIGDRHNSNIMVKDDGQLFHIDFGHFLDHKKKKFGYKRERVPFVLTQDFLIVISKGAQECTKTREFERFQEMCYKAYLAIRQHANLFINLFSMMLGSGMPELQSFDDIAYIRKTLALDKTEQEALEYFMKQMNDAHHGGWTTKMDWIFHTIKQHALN
Sequence (P27986 whole entry partner): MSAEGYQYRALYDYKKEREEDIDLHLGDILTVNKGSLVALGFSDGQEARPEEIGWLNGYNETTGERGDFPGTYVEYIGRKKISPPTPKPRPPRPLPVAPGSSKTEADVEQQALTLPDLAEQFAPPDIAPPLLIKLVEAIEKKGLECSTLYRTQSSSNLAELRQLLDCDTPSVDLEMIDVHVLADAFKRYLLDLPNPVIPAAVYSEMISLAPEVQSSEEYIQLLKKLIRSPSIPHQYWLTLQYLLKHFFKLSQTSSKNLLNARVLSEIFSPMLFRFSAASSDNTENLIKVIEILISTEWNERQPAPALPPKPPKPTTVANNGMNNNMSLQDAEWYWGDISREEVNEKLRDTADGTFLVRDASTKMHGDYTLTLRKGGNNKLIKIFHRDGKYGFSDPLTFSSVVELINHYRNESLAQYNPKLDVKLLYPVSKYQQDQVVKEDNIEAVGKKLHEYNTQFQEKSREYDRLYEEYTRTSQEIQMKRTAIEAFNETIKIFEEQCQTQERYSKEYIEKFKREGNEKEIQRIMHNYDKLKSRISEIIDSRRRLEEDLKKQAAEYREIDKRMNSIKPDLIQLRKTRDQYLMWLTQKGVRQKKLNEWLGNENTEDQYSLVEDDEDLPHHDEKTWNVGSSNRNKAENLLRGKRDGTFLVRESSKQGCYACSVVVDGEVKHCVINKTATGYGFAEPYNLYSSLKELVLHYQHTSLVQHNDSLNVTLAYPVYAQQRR
Consider the cut-off 1 nM. If the recorded IC50 is strictly smaller, the label is 1.0; if not, the label is 0.0.

Some solved entries appear below for comparison.
Q: API: query returns whether the compound falls strictly under 1 nM in IC50. Query: COc1ncc(-c2cc(OC3CCOCC3)c3nc(NCC4CC4)nc(C)c3c2)cc1NS(=O)(=O)c1ccc(F)cc1F
A: 0.0

Q: API: query returns whether the compound falls strictly under 1 nM in IC50. Query: COc1ncc(-c2cc(OCCN3CCCC3)c3ncnc(C)c3c2)cc1NS(=O)(=O)c1ccc(F)cc1F
A: 0.0

Q: API: query returns whether the compound falls strictly under 1 nM in IC50. Query: COc1ncc(-c2cc(OCCn3cccn3)c3ncnc(C)c3c2)cc1NS(=O)(=O)c1ccc(F)cc1F
A: 0.0

Q: API: query returns whether the compound falls strictly under 1 nM in IC50. Query: COc1ncc(-c2cc(OC3CCOCC3)c3nc(N)nc(C)c3c2)cc1NS(=O)(=O)c1ccc(Cl)s1
A: 1.0

Q: API: query returns whether the compound falls strictly under 1 nM in IC50. Query: COc1ncc(-c2cc(OCC3CCN(C)CC3)c3ncnc(C)c3c2)cc1NS(=O)(=O)c1ccc(F)cc1F
A: 0.0

More entries:
Q: API: query returns whether the compound falls strictly under 1 nM in IC50. Query: CNc1nc(C)c2cc(-c3cnc(OC)c(NS(=O)(=O)c4ccc(F)cc4F)c3)cc(OC3CCOC(C)(C)C3)c2n1 (stereo not drawn)
A: 0.0

Q: API: query returns whether the compound falls strictly under 1 nM in IC50. Query: COc1ncc(-c2cc(OC3CCOCC3)c3nc(N)nc(C)c3c2)cc1NS(=O)(=O)C1CC1
A: 0.0

Q: API: query returns whether the compound falls strictly under 1 nM in IC50. Query: CNc1nc(C)c2cc(-c3cnc(OC)c(NS(=O)(=O)c4ccc(Cl)s4)c3)cc(O[C@@H]3CCOC3)c2n1
A: 0.0

Q: API: query returns whether the compound falls strictly under 1 nM in IC50. Query: COc1ncc(-c2cc(OC3CCCC3)c3nc(N)nc(C)c3c2)cc1NS(=O)(=O)c1ccc(F)cc1F
A: 0.0

meta.source: patent US11534443B2
